settings: [M+H]+; instrument: DT; single field, calibrated with ESI Low Concentration Tuning Mix (Agilent)
measuredEndpoint: collision cross section (N2) (Å²)

Reference set (5 entries):
CNCCc1c[nH]c2ccccc12 [N-METHYLTRYPTAMINE] : 142.5
NC(CCSCC(N)C(=O)O)C(=O)O (centres undefined) [CYSTATHIONINE] : 147.3
Nc1ncnc2c1ncn2C1OC(CO)C2OP(=O)(O)OC21 (centres undefined) [ADENOSINE 2',3'-CYCLIC PHOSPHATE] : 168.1
Nc1nc(=O)c2nccnc2[nH]1 [PTERIN] : 128.6
Nc1cc(C(=O)O)ccc1[O-] [3-AMINO-4-HYDROXYBENZOATE] : 139.6

I = NC(CSCC(=O)O)C(=O)O (centres undefined) [S-CARBOXYMETHYLCYSTEINE]
II = C=CC1=C(C)C(/C=c2\[nH]/c(=C\c3[nH]c(/C=C4\NC(=O)C(C)=C4C=C)c(C)c3CCC(=O)O)c(CCC(=O)O)c2C)=NC1=O [BILIVERDIN]
Q: Parameter metric = collision cross section (N2). Return the lower-valued option from I and II . Please reply using the label of the selected record.
Result: I

a = O=c1[nH]c(=O)c2nccnc2[nH]1 [2,4-DIHYDROXYPTERIDINE]
b = C=Cc1c(C)c2cc3[nH]c(cc4nc(cc5nc(cc1[nH]2)C(C)=C5CCC(=O)O)C(CCC(=O)O)=C4C)c(C)c3C=C [PROTOPORPHYRIN]
Q: Parameter check: reported collision cross section (N2) is higher for which label, a or b ? Please reply using the label of the selected record.
Result: b
(b: 241.3 Å², a: 132.4 Å²)

---

conditions: [M-H]-; instrument: DT; single field, calibrated with ESI Low Concentration Tuning Mix (Agilent)
measuredEndpoint: collision cross section (N2) (Å²)

Reference set (6 entries):
Cc1ncc(COP(=O)(O)O)c(C=O)c1O [PYRIDOXAL-PHOSPHATE] : 149.4
Nc1ncnc2c1ncn2C1OC(CO)C2OP(=O)(O)OC21 (stereo not drawn) [ADENOSINE 2',3'-CYCLIC PHOSPHATE] : 169.4
O=C(O)c1cc(=O)c2cccc(O)c2[nH]1 [XANTHURENATE] : 134.3
Nc1ccn([C@H]2C[C@H](O)[C@@H](COP(=O)(O)O)O2)c(=O)n1 [DEOXYCYTIDINE MONOPHOSPHATE] : 162.4
O=C(O)Cc1ccccc1O [2-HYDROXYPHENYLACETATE] : 130.1
CC(O)(CC(=O)O)C(=O)O (stereo not drawn) [CITRAMALATE] : 122

A = O=C(O)c1ccc([O-])cc1 [4-HYDROXYBENZOATE]
B = CC(C)=CC(=O)SCCNC(=O)CCNC(=O)C(O)C(C)(C)COP(=O)(O)OP(=O)(O)OC[C@H]1O[C@@H](n2cnc3c(N)ncnc32)[C@H](O)[C@@H]1OP(=O)(O)O (stereo partly drawn) [3-METHYLCROTONYL-COA]
Q: Parameter check: reported collision cross section (N2) is higher for which label, A or B ? Please reply using the label of the selected record.
Result: B
(B: 256.7 Å², A: 121.2 Å²)

---

settings: [M+H]+; instrument: TW; calibrated with polyalanine and drug standards
measuredEndpoint: collision cross section (N2) (Å²)

Reference set (10 entries):
Nc1ccc(S(=O)(=O)Nc2ccnn2-c2ccccc2)cc1 : 170
O=c1c(-c2cc(O)c(O)c(O)c2)coc2cc(O)c(O)c(O)c12 : 166.5
CC(=O)O[C@H]1CC[C@@]2(C)[C@@H](CC[C@@H]3[C@@H]2CC(=O)[C@]2(C)[C@@H]4[C@H](C[C@@H]32)O[C@]2(CC[C@@H](C)CO2)[C@H]4C)C1 [HECOGENIN ACETATE] : 223.4
CNCCC(Oc1ccc(C(F)(F)F)cc1)c1ccccc1 (stereo not given) : 174.5
COc1cc2c(cc1O)C[C@H]1c3c(cc(O)c(OC)c3-2)CCN1C : 179.2
CNc1ccccc1C(=O)O : 125.9
Cc1cc(=O)[nH]c(=S)[nH]1 : 123.7
O=C1OC2(c3ccc(O)cc3Oc3cc(O)ccc32)c2ccccc21 : 172.3
CC(=O)[C@H]1CC[C@H]2[C@@H]3CCC4=CC(=O)CC[C@]4(C)[C@H]3C(OC(=O)CCC(=O)O)C[C@]12C (stereo partly drawn) [11alpha-HYDROXYPROGESTERONE HEMISUCCINATE] : 201.8
CO[C@H]1C[C@H](O[C@@H]2/C(C)=C/C[C@@H]3C[C@@H](C[C@]4(CC[C@H](C)[C@@H](C5CCCCC5)O4)O3)OC(=O)[C@@H]3C=C(C)/C(=N/O)[C@H]4OC/C(=C\C=C\[C@@H]2C)[C@]43O)O[C@@H](C)[C@@H]1O : 293.2

P = O=C1c2ccccc2C(=O)C1c1ccccc1
Q = CCCCCCCCCc1ccc(OCCOCCOCCOCCOCCOCCOCCOCCOCCO)cc1
Q: Parameter metric = collision cross section (N2). Return the lower-valued option from P and Q . Please reply using the label of the selected record.
Result: P
